The reported measurements were obtained from patent US20230089867A1.

- target: human PCSK9 (Homo sapiens)
- Sequence (Q8NBP7 153-692): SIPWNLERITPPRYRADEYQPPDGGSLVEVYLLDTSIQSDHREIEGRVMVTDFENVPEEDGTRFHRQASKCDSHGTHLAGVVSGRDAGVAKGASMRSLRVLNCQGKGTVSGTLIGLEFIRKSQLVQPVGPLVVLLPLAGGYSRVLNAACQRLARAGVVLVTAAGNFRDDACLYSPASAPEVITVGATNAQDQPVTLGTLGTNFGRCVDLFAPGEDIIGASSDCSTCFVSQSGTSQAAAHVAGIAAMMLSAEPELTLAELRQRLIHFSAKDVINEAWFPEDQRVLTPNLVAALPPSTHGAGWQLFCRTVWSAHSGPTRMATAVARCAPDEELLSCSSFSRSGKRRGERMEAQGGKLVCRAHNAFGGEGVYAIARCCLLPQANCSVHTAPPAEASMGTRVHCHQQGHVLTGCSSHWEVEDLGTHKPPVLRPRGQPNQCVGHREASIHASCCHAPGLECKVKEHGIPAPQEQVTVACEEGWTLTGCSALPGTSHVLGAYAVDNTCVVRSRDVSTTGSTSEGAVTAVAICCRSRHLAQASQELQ
- Sequence (Q8NBP7 31-152 partner limits assumed): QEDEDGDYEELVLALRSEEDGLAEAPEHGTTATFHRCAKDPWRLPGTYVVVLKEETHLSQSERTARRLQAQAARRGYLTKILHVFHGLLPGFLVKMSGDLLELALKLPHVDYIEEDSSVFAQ
- assay remarks: PCSK9 ligand binding TR-FRET assay (interference with binding of human PCSK9 to human LDLR)
- test parameters: TR-FRET; human PCSK9 Alexa Fluor 647 / human LDLR extracellular domain-Europium Kryptate; read-out: PCSK9 FRET Assay IC50
Readings of pIC50 for the listed compounds
Keep it numeric: pIC50 is minus log10 of the concentration in mol/L.

For COC[C@@H]1NC(=O)[C@H](C)N(Cc2ccc(Cl)cc2Oc2ccc(-c3cnc(CN(C)C)n3C)cc2)C(=O)C[C@@H](C2CC2)C(=O)N(C)[C@@H](C)CNC(=O)C[C@H](Cc2ccc(Cl)cc2)N(C)C1=O , what is its reported pIC50? 7.96

For C[C@@H]1C(=O)N[C@@H](CO)C(=O)N(C)[C@@H](Cc2ccc(Cl)cc2)CC(=O)N[C@H]2CCCC[C@@H]2N(C)C(=O)[C@H](Cc2ccccc2)CC(=O)N1Cc1ccc(Cl)cc1Oc1ccc(-c2cnc(CN(C)C)n2C)cc1 , what is its reported pIC50? 8.26

For CCc1ccc(CN2C(=O)C[C@@H](Cc3ccccc3)C(=O)N(C)[C@H]3CCCC[C@@H]3NC(=O)C[C@H](Cc3ccc(Cl)cc3)N(C)C(=O)[C@H](COC)NC(=O)[C@@H]2C)c(Oc2ccc(-c3cnc([C@@H](C)N(C)C)n3C)cc2)c1 , what is its reported pIC50? 9.05

For COC[C@@H]1NC(=O)C(C)N(Cc2c(F)cc(F)cc2Oc2ccc(-c3cnc(CN(C)C)n3C)cc2)C(=O)C[C@@H](Cc2ccccc2)C(=O)N(C)[C@H]2CCCC[C@@H]2NC(=O)C[C@H](Cc2ccc(Cl)cc2)N(C)C1=O (stereo partly shown) , what is its reported pIC50? 8.33
